- Assay: in vitro
- Parameters: species or system HB2, CCD841
- Conditions used: human, hek293 cells
The entries below come with measured viability at 48 h, 10 µM values attached.
Write the answer as a number in %, unit excluded.

Some solved cases for reference:
CCc1nnc(NC(=O)CCl)s1 : 95.8
O=C(CCl)NC(=O)c1ccc(Cl)cc1 : 103
O=C(CCl)NC1CCN(C(=O)c2ccco2)CC1 : 84.6

For the compound CC(NC(=O)CCl)c1ccc2ccccc2c1 (centres unmarked) , what viability at 48 h, 10 µM is on record?
58.5

Request: CC(C#N)(NC(=O)CCl)C1CC1 (centres unmarked)
80.8

Request: N#Cc1c(NC(=O)CCl)sc2c1CCCCC2
39.9

Request: COc1ccc(C(=O)NNC(=O)CCl)cc1
79.4

Request: Cc1cc([N+](=O)[O-])ccc1NC(=O)CCl
18.1

Request: C=CC(=O)N1CC(C)(C)C1c1cccs1 (centres unmarked)
71.3

Request: Cl.O=C(CCl)Nc1ccncc1
90.5

Request: Cl.O=C(CCl)N1CCN(Cc2ccc(Br)s2)CC1
8.6

###

- Assay: in vitro
- Parameters: species or system HB2, HEK293
- Conditions used: human, ccd841 cells
Property: viability at 48 h, 10 µM
// unit must come after the numeric part

Some solved cases for reference:
O=C(CCl)NC(=O)c1cccs1 : 105%
CC12CCC(CC1=NNC(=O)CCl)C2(C)C (stereo not drawn) : 14.6%
C=CC(=O)N1CCNC(=O)C1c1c(F)cccc1Cl (stereo not drawn) : 95.5%
CC(C)(C)CCNC(=O)CCl : 91.6%

For the compound Cc1ccc(N(C(=O)CCl)C2C=CS(=O)(=O)C2)cc1C (stereo not drawn) , what viability at 48 h, 10 µM is on record?
10.5%

Request: O=C(CCl)Nc1cc2c(cc1Cl)OCCCO2
57.1%

###

- Assay: in vitro
- Set-up: species or system HB2, CCD841
- Conditions used: human, hek293 cells
Property: viability at 48 h, 10 µM

For the molecule Cc1noc(NC(=O)CCl)n1 , what viability at 48 h, 10 µM is on record?
119%

###

- Assay: in vitro
- Parameters: species or system HB2, HEK293
- Conditions used: human, ccd841 cells
Property: viability at 48 h, 10 µM (%)
Write the answer as a number in %, unit excluded.

Some solved cases for reference:
O=C(CCl)Nc1cc(F)ccc1F : 58.8
CC(=O)c1oc2ccccc2c1NC(=O)CCl : 65.3

For the compound Cc1ccccc1CC(=O)NNC(=O)CCl , what viability at 48 h, 10 µM is on record?
83.9

Request: O=C(CCl)N1CCOC1=O
109

Request: O=C(CCl)Nc1ccc(O)cc1
60.5

Request: C=CC(=O)Nc1ccc([N+](=O)[O-])cc1
71.6

Request: Cl.O=C(CCl)N1CCN(Cc2ccc3c(c2)OCO3)CC1
67.3

Request: C=CC(=O)Nc1ccc(Cl)c(C#N)c1
86.4

Request: C=CC(=O)N(C1CC1)C1CC(=O)NC1=O (stereo not drawn)
98.4

Request: O=C(CCl)NCc1ccc2c(c1)OCO2
99.9

Request: CCOC(=O)N1CCC(NC(=O)CCl)CC1
61.3

###

- Tested system: NUDT7 (Homo sapiens, UniProt P0C024)
- Construct: residues 14-235, E. coli, pNIC28-Bsa4, N-terminal His6 tag removed by TEV, construct 26672 Da
- Sequence (P0C024 14-235): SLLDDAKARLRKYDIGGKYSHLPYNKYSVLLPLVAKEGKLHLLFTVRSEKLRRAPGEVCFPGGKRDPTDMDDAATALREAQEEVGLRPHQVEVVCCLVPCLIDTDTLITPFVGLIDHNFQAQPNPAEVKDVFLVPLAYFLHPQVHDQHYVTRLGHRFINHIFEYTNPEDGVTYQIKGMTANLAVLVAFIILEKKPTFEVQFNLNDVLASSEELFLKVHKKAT
- Design: Intact protein LC/MS covalent labelling, fragments in pools of five, 200 uM each, 4 °C
- Conditions used: 24 h, 4 °C, pool of five; 200 µM; covalent
The entries below come with measured NUDT7 values attached.
Lab note: write the figure by itself, no unit.

Some solved cases for reference:
N#Cc1ccc(CNC(=O)CCl)cc1 : 0
Cl.O=C(CCl)N1CCN(c2cnccn2)CC1 : 0
O=C(CCl)Nc1nc(-c2c[nH]c3ccccc23)cs1 : 0.26

For the compound Cc1ccc(NC(=O)CCl)c(C)c1 , what NUDT7 is on record?
0

Request: CC(c1ccc(Cl)cc1)N(C)C(=O)CCl (centres unmarked)
0.39

Request: O=C(CCl)NC1C2CC3CC(C2)CC1C3 (centres unmarked)
0

Request: CN(C(=O)CCl)C(C)(C)C#N
0

Request: CC(NC(=O)CCl)c1ccccc1Cl (centres unmarked)
0

Request: Cc1ccc(CN2CCCN(C(=O)CCl)CC2)cc1.Cl
0

Request: C=CC(=O)NC1CCC(c2nc(C)no2)CC1 (centres unmarked)
0

Request: C=CC(=O)NCC1COc2ccccc2O1 (centres unmarked)
0.16

Request: C=CC(=O)N1CCC(n2ccc(C(F)(F)F)n2)CC1
0

Request: Cc1nc(C2(NC(=O)CCl)CCCCC2)no1
0.1

Request: Cl.O=C(CCl)N1CCN(Cc2ccccc2)CC1
0.07

Request: C=CC(=O)N1CCC(S(=O)(=O)N2CCCC2)C1 (centres unmarked)
0

Request: CCOC(=O)C1CCCCN1C(=O)CCl (centres unmarked)
0

Request: O=C(CCl)NNC(=O)c1cccs1
0

Request: C=CC(=O)N1CCc2sccc2C1c1cccs1 (centres unmarked)
0

Request: C=CC(=O)N1CC(c2nc(C)no2)C1
0

Request: C=CC(=O)N1CCC(n2nnc3c2CCCC3)CC1
0

###

- Tested system: BSA (Bos taurus, UniProt P02769)
- Construct: gene ALB
- Sequence (P02769 whole entry): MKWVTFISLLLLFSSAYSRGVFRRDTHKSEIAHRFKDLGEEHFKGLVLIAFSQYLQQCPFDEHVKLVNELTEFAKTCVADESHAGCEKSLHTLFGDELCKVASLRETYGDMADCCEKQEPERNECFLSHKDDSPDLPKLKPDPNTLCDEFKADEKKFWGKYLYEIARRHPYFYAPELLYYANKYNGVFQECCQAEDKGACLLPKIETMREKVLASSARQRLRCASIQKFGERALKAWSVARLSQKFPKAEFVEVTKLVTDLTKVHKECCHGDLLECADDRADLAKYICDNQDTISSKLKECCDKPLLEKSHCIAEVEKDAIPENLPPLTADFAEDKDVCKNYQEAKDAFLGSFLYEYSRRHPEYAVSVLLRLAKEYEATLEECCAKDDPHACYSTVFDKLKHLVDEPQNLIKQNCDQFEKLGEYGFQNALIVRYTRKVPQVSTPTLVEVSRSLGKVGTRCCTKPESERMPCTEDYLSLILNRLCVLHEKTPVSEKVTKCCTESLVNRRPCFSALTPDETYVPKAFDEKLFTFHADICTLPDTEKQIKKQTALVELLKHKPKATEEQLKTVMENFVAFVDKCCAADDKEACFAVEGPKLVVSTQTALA
- Design: Intact protein LC/MS covalent labelling, fragments in pools of five, 200 uM each, 4 °C
- Conditions used: 24 h, 4 °C, pool of five; 200 µM; covalent
The entries below come with measured BSA values attached.

O=C(CCl)N1CCN(c2ncc(Cl)cc2Cl)CC1 : 0
Cl.O=C(CCl)Nc1cccnc1 : 0
O=C(CCl)NNc1ccccn1 : 0

For the molecule C=CC(=O)N1CCCC(C(C)NC(=O)NC(C)(C)C)C1 (centres unmarked) , what BSA is on record?
0

Request: O=C(CCl)N1CCN(S(=O)(=O)c2ccccc2)CC1
0

Request: CCN(C(=O)CCl)c1ccc(F)cc1
0

Request: Cc1ccc(NC(=O)NC(=O)CCl)cc1
0

Request: C=CC(=O)Nc1ccc(Cl)c(C#N)c1
0

###

- Tested system: OTUB2 (OTUB2A) (Homo sapiens, UniProt Q96DC9)
- Construct: full length residues 1-234, E. coli BL21(DE3)-R3, His tag removed by TEV, construct 27312 Da
- Sequence (Q96DC9 1-234): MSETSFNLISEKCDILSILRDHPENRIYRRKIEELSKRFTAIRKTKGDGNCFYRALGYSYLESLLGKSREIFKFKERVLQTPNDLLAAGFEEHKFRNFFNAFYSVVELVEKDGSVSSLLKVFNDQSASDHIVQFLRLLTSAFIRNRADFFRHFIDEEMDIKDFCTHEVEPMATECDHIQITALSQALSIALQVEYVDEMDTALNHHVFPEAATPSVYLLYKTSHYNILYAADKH
- Design: Intact protein LC/MS covalent labelling, fragments in pools of five, 200 uM each, 4 °C
- Conditions used: 24 h, 4 °C, pool of five; 200 µM; covalent
Property: OTUB2
Lab note: write the figure by itself, no unit.

O=C(CCl)Nc1nc(-c2ccc(F)cc2)cs1 : 0.21
C=CC(=O)N1CCN(C(=O)OC(C)(C)C)CC1 : 0
CN(C(=O)CCl)C1(C#N)CCCCC1 : 0

We now examine a further compound.
Give OTUB2 (OTUB2 (OTUB2A) (Homo sapiens, UniProt Q96DC9)) of the following compound: Cc1n[nH]c(C)c1NC(=O)CCl
0

###

- Assay: in vitro
- Set-up: species or system HB2, HEK293
- Conditions used: human, ccd841 cells
Property: viability at 48 h, 10 µM (%)
Write the answer as a number in %, unit excluded.

For the compound O=C(CCl)N1CCCCCC1 , what viability at 48 h, 10 µM is on record?
85.6

Request: CC(C)N(C(=O)CCl)c1ccccc1
17.7

Request: O=C(CCl)NCc1cc(F)cc(F)c1
71.3

Request: C=CC(=O)NNC(=O)c1ccccc1
112

Request: CC(NC(=O)CCl)c1ccc2c(c1)CC(=O)N2 (centres unmarked)
86

Request: CN(Cc1cccc(Cl)c1)C(=O)CCl
67.9

Request: C=CC(=O)N1CCCC(Oc2ncccc2F)C1 (centres unmarked)
109

Request: O=C(CCl)NCc1cc(Br)cs1
75.7

Request: C=CC(=O)NC(=O)NC12CC3CC(CC(C3)C1)C2
80.9

Request: CCOC(=O)N1CCN(C(=O)CCl)CC1
109

Request: C=CC(=O)NC1c2ccccc2CC12CCOCC2 (centres unmarked)
106

meta.source: paper PMC6556873
